Test system: HT29 colon
Test protocol: NCI-60 one-dose screen, 48 h (100 = growth as untreated, 0 = no growth, -100 = all killed)
Assay conditions: 10 µM unless noted
The panel holds about 83,000 compounds, 20% with a hit somewhere; the sample as a whole holds those more often.
Consider the following compounds and their measured growth readings.
Only the number, expressed in %, is required.

{"Compound": "Cn1cc(-c2csc(-c3cn(C)c4ncccc34)n2)c2cc(F)cnc21", "Target under test": "HT29 colon", "Unit name": "%", "growth": 69.8}
{"Compound": "COc1ccc(CCN2CCCN3C2=Nc2ccccc2S3(=O)=O)cc1", "Target under test": "HT29 colon", "Unit name": "%", "growth": 13.7}
{"Compound": "O=C1CC(C(F)(F)F)=NN1C(=O)c1nn(-c2ccc(Cl)cc2)cc1O", "Target under test": "HT29 colon", "Unit name": "%", "growth": 110}
{"Compound": "CCCCc1nc(Cl)c(CO)n1Cc1ccc(-c2ccccc2-c2nn[nH]n2)cc1", "Target under test": "HT29 colon", "Unit name": "%", "growth": 108}
{"Compound": "COc1cc(C2NC(c3ccc(Cl)cc3)C(C)C(=NC(=O)c3cnccn3)C2C)cc(OC)c1OC (stereo unspecified)", "Target under test": "HT29 colon", "Unit name": "%", "growth": 67.8}

Reported growth for NC(=Nc1ccccc1)SCCCCSC(N)=Nc1ccccc1 : what is it?
94.8

Reported growth for COC(=O)[C@]1(C(C)C)N[C@H](c2cn(-c3ccccc3)nc2-c2ccccc2)[C@@H]2C(=O)N(c3ccc(Cl)cc3)C(=O)[C@@H]21 : what is it?
98.1

Reported growth for CCCCCCCCCCCCCCCCCC1=NC(C)(C)CN1CCO : what is it?
-44.7

Reported growth for c1ccc(-n2nnnc2-c2cccc3ccccc23)cc1 : what is it?
-1.01

Reported growth for C[C@]12CC[C@@H]3c4ccc(O)c([N+](=O)[O-])c4CC[C@H]3[C@@H]1CC[C@@H]2NS(=O)(=O)c1ccc(C(F)(F)F)cc1 : what is it?
48

Reported growth for COC(=O)C[C@@H]1CC=CC(=O)/C1=C(O)/C=C/c1ccccc1 : what is it?
-65.3

Reported growth for CC[N+](CC)(CCOCCOCC[N+](CC)(CC)Cc1ccc([N+](=O)[O-])cc1)Cc1ccc([N+](=O)[O-])cc1 : what is it?
113

---

Test system: MCF7 breast
Test protocol: NCI-60 one-dose screen, 48 h
Assay conditions: 10 µM unless noted
Protocol: Growth inhibition of the MCF7 human tumor cell line is measured as a screen for anti-cancer activity. Cells are grown in 96 well plates and exposed to the test compound for 48 hours. Compounds are tested at a single concentration, which is 10^-5 M for most compounds. The reported endpoint is percent growth (GI% or GIPRCNT), where numbers from 0 - 100% represent growth inhibition, and numbers from -100% - 0 represent cell death. For example, a value of 40 represents 60% growth inhibition. […]
About 83,000 compounds went through this panel and 20% of them were active in at least one assay; those are over-represented in the sample as a whole. Calls of active or inactive are those of the source. The calls were made as follows: active = growth percent below 10; inactive = the rest.
Lab note: assign the record to one of TRUE (active), FALSE (inactive)

Sample answers from the record:
{"Compound": "O=C(/C=C/c1cccnc1)/C=C/c1cccnc1", "Group": "TRUE"}
{"Compound": "COc1cccc(CCC2C(=O)CCCC2=O)c1", "Group": "FALSE"}
{"Compound": "CCOC(=O)c1c(NC(=O)C2CCCCC2C(=O)O)sc2c1CCCC2 (centres undefined)", "Group": "FALSE"}
{"Compound": "O=C(COC(=O)[C@H](C[Se][Se]C[C@H](NC(=O)c1ccc(Br)cc1F)C(=O)OCC(=O)c1ccc(F)cc1)NC(=O)c1ccc(Br)cc1F)c1ccc(F)cc1", "Group": "TRUE"}
{"Compound": "CCOC(=O)c1c2c(c(C)n1Cc1ccc(OC)cc1)-c1nc(N)ncc1CC2", "Group": "FALSE"}

Query: recorded result category for Cc1ccc(C=C2C(Cl)=C(Cl)C(Cl)=C2Cl)cc1 in this test
TRUE

Query: recorded result category for CCOc1cc(C(C)(C)C)ccc1C1=N[C@H](c2ccc(Cl)cc2)[C@H](c2ccc(Cl)cc2)N1C(=O)N1CCN(CC#Cc2cccc3c2CN([C@@H]2CCC(=O)NC2=O)C3=O)CC1 in this test
TRUE

Query: recorded result category for O=C1NCN(c2ccccc2)C12CCN(CCCC(c1ccc(F)cc1)c1ccc(F)cc1)CC2 in this test
FALSE

Query: recorded result category for CC(C)C(=O)Cc1cnccn1 in this test
FALSE

All figures here come from PubChem BioAssay (NCI).
